system: TSGH-8301 (Urinary Bladder Carcinoma); experiment: Cell viability analysis (WST-1), TSGH-8301; assay type: cell-based; conditions: 72 h, Table 3, drug 10 μM, WST-1, OD450 nm, read-out: survival rate (viability) of cancer cells, TSGH
Counter-ions that a name gives are not always drawn.
assay endpoint: viability at 10 µM

Fill in viability at 10 µM for each of the 5 compounds listed.
1. CCCCNc1cc(C(=O)O)cc(S(N)(=O)=O)c1Oc1ccccc1 [Bumetanide]
2. NCCCCCC(=O)O [Aminocaproic acid (Amicar), Aminocaproic acid]
3. Cc1cccc(Nc2ccccc2C(=O)O)c1C [Mefenamic acid]
4. CO[C@@H]1[C@@H](OC(N)=O)[C@@H](O)[C@H](Oc2ccc3c(O)c(NC(=O)c4ccc(O)c(CC=C(C)C)c4)c(=O)oc3c2C)OC1(C)C [Novobiocin sodium (Albamycin), Novobiocin sodium]
5. C#CCN[C@@H]1CCc2ccccc21 [Rasagiline mesylate]

Ans:
92.6%
71.4%
118%
85.3%
74.2%

Fill in viability at 10 µM for each of the 2 compounds listed.
1. CC(C)OC(=O)C(C)(C)Oc1ccc(C(=O)c2ccc(Cl)cc2)cc1 [Fenofibrate (Tricor, Trilipix), Fenofibrate]
2. COCCCOc1cc(C[C@@H](C[C@H](N)[C@@H](O)C[C@H](C(=O)NCC(C)(C)C(N)=O)C(C)C)C(C)C)ccc1OC [Aliskiren hemifumarate]

Ans:
1: 103%; 2: 73.3%

Fill in viability at 10 µM for each of the 4 compounds listed.
1. CCCSc1nc(N[C@@H]2C[C@H]2c2ccc(F)c(F)c2)c2nnn([C@@H]3C[C@H](OCCO)[C@@H](O)[C@H]3O)c2n1 [Ticagrelor]
2. Cc1cnc(C(=O)O)c[n+]1[O-] [Acipimox]
3. CCOC(=O)[C@H](CCc1ccccc1)N[C@H]1CCc2ccccc2N(CC(=O)O)C1=O [Benazepril hydrochloride]
4. O=C(O)c1cc(=O)c2ccccc2o1 [Chromocarb]

Ans:
["86%", "99.8%", "77.5%", "97.2%"]

Fill in viability at 10 µM for each of the 8 compounds listed.
1. CC(=O)O[C@H]1C[C@@H]2CC[C@@H]3[C@H](CC[C@@]4(C)[C@H]3C[C@H]([N+]3(C)CCCCC3)[C@@H]4OC(C)=O)[C@@]2(C)C[C@@H]1[N+]1(C)CCCCC1 [Pancuronium (Pavulon), Pancuronium]
2. NS(=O)(=O)c1cc2c(cc1Cl)NC(C(Cl)Cl)NS2(=O)=O (stereo not shown) [Trichlormethiazide (Achletin), Trichlormethiazide]
3. CC(C)NCC(O)COc1ccc(COCCOC(C)C)cc1 (stereo not shown) [Bisoprolol]
4. CC(=O)Oc1ccc(C(c2ccc(OC(C)=O)cc2)c2ccccn2)cc1 [Bisacodyl]
5. Cc1c(OCC(F)(F)F)ccnc1C[S@@+]([O-])c1nc2ccccc2[nH]1 [Dexlansoprazole]
6. CCOC(=O)[C@H](CCc1ccccc1)N[C@@H](C)C(=O)N1[C@H](C(=O)O)C[C@@H]2CCC[C@@H]21 [Ramipril (Altace), Ramipril]
7. O=C(O)/C=C/c1ccc(Cn2ccnc2)cc1 [Ozagrel]
8. CC1Cc2ccccc2N1NC(=O)c1ccc(Cl)c(S(N)(=O)=O)c1 (stereo not shown) [Indapamide (Lozol), Indapamide]

Ans:
1. 68.3%
2. 95.6%
3. 87.5%
4. 104%
5. 84.9%
6. 114%
7. 69.4%
8. 85%

Fill in viability at 10 µM for each of the 7 compounds listed.
1. O=C(O)c1nn(Cc2ccc(Cl)cc2Cl)c2ccccc12 [Lonidamine]
2. CCN(CC)CCOC(=O)C(c1ccccc1)c1ccccc1 [Adiphenine HCl]
3. CCCNCC(O)COc1ccccc1C(=O)CCc1ccccc1 (stereo not shown) [Propafenone (Rytmonorm), Propafenone]
4. CC(C)NC[C@H](O)COc1ccc(CCOCC2CC2)cc1 [Levobetaxolol HCl]
5. CC(=O)NS(=O)(=O)c1ccc(N)cc1 [sulfacetamide sodium]
6. NC(=O)c1ncn([C@@H]2O[C@H](CO)[C@@H](O)[C@H]2O)c1N [Acadesine]
7. Cc1cccc(Cc2c[nH]cn2)c1C [Detomidine HCl]

Ans:
1: 86.4%; 2: 82%; 3: 61.1%; 4: 98.2%; 5: 120%; 6: 99.7%; 7: 74.2%

Fill in viability at 10 µM for each of the 2 compounds listed.
1. Clc1ccccc1CN1CCc2sccc2C1 [Ticlopidine HCl]
2. CCC(NC(C)C)C(O)c1ccc(O)c(O)c1 (stereo not shown) [Isoetharine Mesylate]

Ans:
1: 112%; 2: 88.3%

----------
system: A375 (Amelanotic Melanoma); assay: Cell viability analysis (WST-1), A375; type: cell-based; conditions: Homo sapiens, A-375, 72 h, Table 3, drug 10 μM, WST-1, OD450 nm, lower viability = better inhibition, read-out: survival rate (viability) of cancer cells, A375
For each record, write down the corresponding viability at 10 µM.
Give bare numbers, in %.

Q: Please supply the value of reported viability at 10 µM for the item CCCCNc1cc(C(=O)O)cc(S(N)(=O)=O)c1Oc1ccccc1 [Bumetanide]
Ans: 67.6

Q: Please supply the value of reported viability at 10 µM for the item CC1Cc2ccccc2N1NC(=O)c1ccc(Cl)c(S(N)(=O)=O)c1 (centres unmarked) [Indapamide (Lozol), Indapamide]
Ans: 64.8

Q: Please supply the value of reported viability at 10 µM for the item `O=C(O)c1nn(Cc2ccc(Cl)cc2Cl)c2ccccc12`
Ans: 65.8

Fill in viability at 10 µM for each of the 2 compounds listed.
1. Cc1c(OCC(F)(F)F)ccnc1C[S@@+]([O-])c1nc2ccccc2[nH]1
2. NC(=O)c1ncn([C@@H]2O[C@H](CO)[C@@H](O)[C@H]2O)c1N

Ans:
75.1
99.1

----------
test system: SAS; test: Cell viability analysis (WST-1), SAS; format: cell-based; conditions: 72 h, Table 4, repeated experiments, drug 10 μM, read-out: survival rate (viability) of cancer cells, SAS
assay endpoint: viability at 10 µM (%)
Give bare numbers, in %.

// solved cases for viability at 10 µM follow
Q: Please supply the value of reported viability at 10 µM for the item COc1ccc(-c2nc3ccc(C4=NNC(=O)CC4C)cc3[nH]2)cc1 (stereo not drawn)
Ans: 51.1

Q: Please supply the value of reported viability at 10 µM for the item CC(C)n1c(/C=C/C(O)CC(O)CC(=O)O)c(-c2ccc(F)cc2)c2ccccc21 (stereo not drawn) [Fluvastatin sodium (Lescol), Fluvastatin sodium]
Ans: 81.5

Fill in viability at 10 µM for each of the 4 compounds listed.
1. COC(=O)C1=C(C)NC(C)=C(C(=O)OCC(C)C)C1c1ccccc1[N+](=O)[O-] (stereo not drawn) [Nisoldipine (Sular), Nisoldipine]
2. C[C@@H]1O[C@@H](O[C@H]2C[C@@H](O)[C@]3(CO)[C@H]4[C@H](O)C[C@]5(C)[C@@H](C6=CC(=O)OC6)CC[C@]5(O)[C@@H]4CC[C@]3(O)C2)[C@H](O)[C@H](O)[C@H]1O
3. CCC(C)(C)C(=O)O[C@H]1C[C@@H](C)C=C2C=C[C@H](C)[C@H](CC[C@@H]3C[C@@H](O)CC(=O)O3)[C@H]21 [Simvastatin (Zocor), Simvastatin]
4. COCCOC(=O)C1=C(C)NC(C)=C(C(=O)OC/C=C/c2ccccc2)C1c1cccc([N+](=O)[O-])c1 (stereo not drawn)

Ans:
1. 48.8
2. 20.2
3. 83.9
4. 38.9

----------
system: AsPC-1; test: Cell viability analysis (WST-1), AsPC-1; type: cell-based; conditions: Homo sapiens, ASPC1, 72 h, Table 4, repeated experiments, drug 10 μM, read-out: survival rate (viability) of cancer cells, AsPC-1
Counter-ions that a name gives are not always drawn.
Note to self: class labels come from recorded viability at 10 µM, ranges listed here: lower band = under 60%, central band = from 60% up to 80%, upper band = 80% and over

Q: Sort into band: `CCC[C@H](N[C@@H](C)C(=O)N1[C@H](C(=O)O)C[C@@H]2CCCC[C@@H]21)C(=O)OCC`
Ans: central band

Q: Sort into band: COC(=O)C1=C(C)NC(C)=C(C(=O)OC2CCCN(Cc3ccccc3)C2)C1c1cccc([N+](=O)[O-])c1 (centres unmarked) [Benidipine hydrochloride]
Ans: central band

Q: Sort into band: `C[C@@H]1O[C@@H](O[C@H]2C[C@@H](O)[C@]3(CO)[C@H]4[C@H](O)C[C@]5(C)[C@@H](C6=CC(=O)OC6)CC[C@]5(O)[C@@H]4CC[C@]3(O)C2)[C@H](O)[C@H](O)[C@H]1O`
Ans: lower band

Next:
Q: Sort into band: CC(C)N(CCC(C(N)=O)(c1ccccc1)c1ccccn1)C(C)C (centres unmarked) [Disopyramide Phosphate]
Ans: central band

Q: Sort into band: COc1ccc(-c2nc3ccc(C4=NNC(=O)CC4C)cc3[nH]2)cc1 (centres unmarked)
Ans: central band

This collection of values is drawn from patent US20170304388A1.
